study-target: Cathepsin D (Homo sapiens)
Sequence (P07339 65-162 limits assumed): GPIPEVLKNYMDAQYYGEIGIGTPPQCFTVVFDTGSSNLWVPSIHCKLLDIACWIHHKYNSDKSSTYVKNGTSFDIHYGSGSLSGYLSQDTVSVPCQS
Sequence (P07339 169-412 limits assumed): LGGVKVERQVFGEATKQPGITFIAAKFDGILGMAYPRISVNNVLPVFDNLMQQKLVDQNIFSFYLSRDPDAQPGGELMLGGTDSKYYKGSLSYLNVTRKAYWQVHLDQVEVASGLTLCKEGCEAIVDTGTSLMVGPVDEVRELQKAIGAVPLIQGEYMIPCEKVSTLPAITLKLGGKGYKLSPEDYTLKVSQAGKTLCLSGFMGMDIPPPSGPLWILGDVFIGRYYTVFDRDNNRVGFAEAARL
method: Inhibitory activity against cathepsin D
Kindly supply the reported IC50 values for the records listed here.
Response body: numeric value in nM, unit text excluded.

What does the record list as IC50 for CCCCNC(=O)CC(O)C(Cc1ccccc1)NC(=O)[C@@H](NC(=O)c1ccc(CN2CCCC2)cc1)[C@@H](C)CC (stereo partly drawn) ?
1200

What does the record list as IC50 for CCCCNC(=O)CC(O)C(Cc1ccccc1)NC(=O)[C@@H](NC(=O)COc1ccc2ccccc2c1)[C@@H](C)CC (stereo partly drawn) ?
500

What does the record list as IC50 for CCCCNC(=O)CC(O)C(Cc1ccccc1)NC(=O)[C@@H](NC(=O)CN1CCC(C(N)=O)(c2ccccc2)CC1)[C@@H](C)CC (stereo partly drawn) ?
5500

====

study-target: Plasmepsin II (Plasmodium falciparum)
Sequence (P46925 whole entry): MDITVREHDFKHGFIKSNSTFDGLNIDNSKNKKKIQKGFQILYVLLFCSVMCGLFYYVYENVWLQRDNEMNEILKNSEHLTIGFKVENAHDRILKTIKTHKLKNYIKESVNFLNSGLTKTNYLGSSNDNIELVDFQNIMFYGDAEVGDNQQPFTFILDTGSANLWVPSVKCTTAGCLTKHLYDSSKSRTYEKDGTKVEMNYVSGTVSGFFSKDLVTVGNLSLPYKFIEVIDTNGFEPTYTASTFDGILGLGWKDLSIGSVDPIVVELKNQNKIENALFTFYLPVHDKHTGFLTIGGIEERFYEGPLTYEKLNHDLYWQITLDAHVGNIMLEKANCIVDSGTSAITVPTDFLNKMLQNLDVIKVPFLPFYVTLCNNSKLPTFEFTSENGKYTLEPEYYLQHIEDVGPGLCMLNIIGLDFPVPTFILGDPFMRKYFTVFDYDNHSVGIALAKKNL
method: In vitro inhibition of plasmepsin-2 from Plasmodium falciparum.
pKi: −log10 of the molar value.
Kind request: treat 6 as inclusive, so pKi at 6 or higher is yes (1), anything lower is no (0).

Has CCCCNC(=O)CC(O)C(CC(C)C)NC(=O)[C@H](CC(C)C)NC(=O)COc1ccc2ccccc2c1 (stereo partly drawn) a recorded pKi greater than or equal to 6?
no (0)

Has CCCCNC(=O)CC(O)C(Cc1ccccc1)NC(=O)[C@@H](NC(=O)COc1ccc2ccccc2c1)c1ccccc1 (stereo partly drawn) a recorded pKi greater than or equal to 6?
yes (1)

Has CCCCNC(=O)CC(O)C(Cc1ccccc1)NC(=O)[C@H](NC(=O)COc1ccc2ccccc2c1)c1ccccc1 (stereo partly drawn) a recorded pKi greater than or equal to 6?
no (0)

Has CC[C@H](C)[C@H](NC(=O)CN1CCC(C(N)=O)(c2ccccc2)CC1)C(=O)NC(Cc1ccccc1)C(O)CC(=O)NCCCc1ccccc1 (stereo partly drawn) a recorded pKi greater than or equal to 6?
yes (1)

Has CCCCNC(=O)CC(O)C(CC(C)C)NC(=O)[C@@H](NC(=O)COc1ccc2ccccc2c1)c1ccccc1 (stereo partly drawn) a recorded pKi greater than or equal to 6?
no (0)

Has CCCCNC(=O)CC(O)C(CC(C)C)NC(=O)[C@H](Cc1ccccc1)NC(=O)COc1ccc2ccccc2c1 (stereo partly drawn) a recorded pKi greater than or equal to 6?
no (0)

Has CCCCNC(=O)CC(O)C(Cc1ccccc1)NC(=O)[C@H](CCC(N)=O)NC(=O)COc1ccc2ccccc2c1 (stereo partly drawn) a recorded pKi greater than or equal to 6?
no (0)

Has CCCCNC(=O)CC(O)C(Cc1ccccc1)NC(=O)[C@@H](NC(=O)CN1CCC(C(N)=O)(c2ccccc2)CC1)[C@@H](C)CC (stereo partly drawn) a recorded pKi greater than or equal to 6?
yes (1)

====

Kindly supply the reported IC50 values for the records listed here.
System: Plasmodium falciparum
method: Inhibitory activity against Plasmodium falciparum
Format: functional, organism-based

Param readout = IC50; param system = Plasmodium falciparum; param query = CCCCNC(=O)CC(O)C(Cc1ccccc1)NC(=O)[C@@H](NC(=O)COc1ccc2ccccc2c1)[C@@H](C)CC (stereo partly drawn) ; response: value
~10 µM

Param readout = IC50; param system = Plasmodium falciparum; param query = CCCCNC(=O)CC(O)C(Cc1ccccc1)NC(=O)[C@@H](NC(=O)CN1CCC(C(N)=O)(c2ccccc2)CC1)[C@@H](C)CC (stereo partly drawn) ; response: value
~20 µM

Param readout = IC50; param system = Plasmodium falciparum; param query = CCCCNC(=O)CC(O)C(Cc1ccccc1)NC(=O)[C@@H](NC(=O)c1ccc(CN2CCCC2)cc1)[C@@H](C)CC (stereo partly drawn) ; response: value
~10 µM

====

Kindly supply the reported Ki values for the records listed here.
study-target: UniProtKB P46925
method: In vitro inhibition of plasmepsin-2 from Plasmodium falciparum.
Response body: numeric value in µM, unit text excluded.

What does the record list as Ki for CCCCNC(=O)CC(O)C(Cc1ccccc1)NC(=O)[C@@H](NC(=O)Cc1ccc2ccccc2c1)[C@@H](C)CC (stereo partly drawn) ?
0.09

What does the record list as Ki for CCC(C)C(NC(=O)c1ccc(CNC)cc1)C(=O)NC(CC(C)C)C(O)CC(=O)NCCCc1ccccc1 (stereo not drawn) ?
0.44

What does the record list as Ki for CCCCNC(=O)CC(O)C(Cc1ccccc1)NC(=O)[C@@H](NC(=O)c1ccc(OC)cc1OC)[C@@H](C)CC (stereo partly drawn) ?
0.22

What does the record list as Ki for CCCCNC(=O)CC(O)C(Cc1ccccc1)NC(=O)[C@@H](NC(=O)COc1ccc2ccccc2c1)[C@@H](C)CC (stereo partly drawn) ?
0.11

What does the record list as Ki for CCCCNC(=O)CC(O)C(Cc1ccccc1)NC(=O)[C@@H](NC(=O)c1ccc(CN2CCCC2)cc1)[C@@H](C)CC (stereo partly drawn) ?
0.22

What does the record list as Ki for CCCCNC(=O)CC(O)C(Cc1ccccc1)NC(=O)[C@@H](NC(=O)c1ccc(OC)cc1OC)c1ccccc1 (stereo in doubt; form 1) ?
0.59

What does the record list as Ki for CCCCNC(=O)CC(O)C(Cc1ccccc1)NC(=O)[C@@H](NC(=O)c1ccc(OC)cc1OC)C(C)C (stereo partly drawn) ?
0.5

Where do these numbers come from? They come from ChEMBL document CHEMBL1131370.
